- Method Summary: DPPH free radical scavenging assay
- Condition Label: isolated compounds; half scavenging concentration; read-out: DPPH Assay SC50
Measure Name: EC50 (µM)

As a guide, the following entries are already answered.
{"columns": ["Compound", "Unit Symbol", "Recorded Measurement"],
 "data": [
  ["O=c1cc(-c2ccc(O)c(O)c2)oc2cc(O[C@@H]3O[C@H](CO)[C@@H](O)[C@H](O)[C@H]3O)cc(O)c12 [Compound 1, luteolin-7-O-β-D-glucoside]", "µM", 8.09],
  ["COc1cc(C(O)C(CO)Oc2c(OC)cc(/C=C/CO)cc2OC)cc(OC)c1O (stereo not drawn) [Compound 20]", "µM", 8.66]
]}

(1) Cc1cc2c(cc1O)C(=O)c1ccccc1C2=O [Compound 14, 3-hydroxy-2-methyl-9,10-anthraquinone]
(2) O=C(O)c1cc(O)c(O)c(O)c1 [Compound 23, gallic acid]
(3) COc1ccc(-c2cc(=O)c3c(O)cc(O[C@@H]4O[C@H](C(=O)O)[C@@H](O)[C@H](O)[C@H]4O)cc3o2)cc1 [Compound 2, acacetin-7-O-β-glucuronide]
(4) COC(=O)c1cc(O)c2c(c1)C(=O)c1ccccc1C2=O [Compound 13]
Exam item: Sequence the entries by EC50, beginning with the highest number. The labels, placed in the requested order, form the answer.
Marked response: 1, 3, 4, 2
(1: 25.8 µM, 3: 17.4 µM, 4: 3.56 µM, 2: 0.32 µM)

Value source: paper PMC10044725
